Values from patent US20170320956A1

Molecular target: T1, recombinant human LIGHT-214E, FLAG-tagged extracellular domain (human)
T1 construct: Trimer; Biotinylated in some assays
T1 chain: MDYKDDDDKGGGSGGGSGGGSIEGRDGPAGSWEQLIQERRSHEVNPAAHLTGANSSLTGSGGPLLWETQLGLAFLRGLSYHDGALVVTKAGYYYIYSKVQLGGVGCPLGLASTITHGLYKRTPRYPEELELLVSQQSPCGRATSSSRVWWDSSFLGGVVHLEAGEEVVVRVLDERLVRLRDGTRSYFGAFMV
Experiment: HTRF competition, HVEM-Fc binding to Flag-hLIGHT-214E
recorded_endpoint: IC50 (nM)
Quick reminder: number only, in nM, skip the unit.

# IC50 (binder: 14B09 (purified from hybridoma supernatant) (antibody, V domains shown, Murine constant / human variable chimeric IgG, lambda, Protein G purified from hybridoma supernatant) VH: QVQLVQSGAEVKKPGASVKVSCRASGYTFTSYLMHWVRQAPGQRLEWMGWINVGNGNTKYSQKFQGRVTITRDTSASTAYMELSGLRSEDTAVYYCARNYYNWFDPWGQGTLVTVSS VL: QSALTQPASVSGSPGQSITISCTGTSSDVGGYNYVSWYQQHPGKAPKLMIYDVSKRPSGVSNRFSGSKSGNTASLTISGLQAEDEADYYCFSYAGSSTVVFGGGTKLTVL ) is 0.895

In plain terms, 29C09 (purified from hybridoma supernatant) (antibody, V domains shown, Murine constant / human variable chimeric IgG, lambda, Protein G purified from hybridoma supernatant) VH: QEQLVQSGAEVKKPGASVKVSCKASGYTFTSYDINWVRQATGQGLEWMGWMNPNSGYTGYAQKFQGRVTMTRNTSIRTVYMELSSLRSEDTAVYYCARGGETFDIWGQGTMVTVSS VL: SYELTQPPSVSVSPGQTARITCSGDALPKKYAYWYQQKSGQAPVLVIYEDSKRPSGIPERFSGSSSGTMATLTISGAQVEDEADYYCYSTDSSDNHSVFGTGTKVTVL has a documented IC50 of 0.922

// sample 31A10 (purified from hybridoma supernatant) (antibody, V domains shown, Murine constant / human variable chimeric IgG, kappa, Protein G purified from hybridoma supernatant) VH: QVQLQESGPGLVKPSGTLSLTCAVSGGSISSINWWNWVRQPPGKGLEWIGEVSHSGITNYNPSLKSRVTMSVDKAKNQFSLKLNSVTAADTAVYYCARERAVADYHGMDVWGQGTTVTVSS VL: AIQLTQSPSSLSASVGDRVTITCRASQGISSALAWFQQKPGKPPKLLIFDASDLESGVSSRFSGSGSGTDFTLTISSLQPGDFATYYCQQFNSYPITFGQGTRLEIK , its IC50 was 0.662

--- query ---
Data point: 42A02 (purified from hybridoma supernatant) (antibody, V domains shown, Murine constant / human variable chimeric IgG, lambda, Protein G purified from hybridoma supernatant) VH: EVQLVESGGGLVQPGGSLRLSCAASGFTFSSYVMSWVRQAPGKGLEWVSVISSSGVTTYYADSVKGRFTISRDNSKNTLYLQMNSLRAEETAVYYCAKGNYGSGSFCDYWGQGTPVTVSS VL: SYVLTQPPSVSVAPGKTARITCGGNNIGSKSVHWYQQRPGQAPILVIYYDSDRPSGIPERFSGSNSGNSATLTISRVEAGDEADYHCQVWESSSDHPVFGGGTKLTVL ; IC50 = 0.898
